# System name: T1, human programmed cell death protein 1 (hPD-1) C93S (aa 24-167) (Homo sapiens, UniProt Q15116, C93S)
# T1 construct: made as a fusion with a TEV site and human Fc; the Fc was cut off with TEV protease; source: Expi293F, purified (Protein A, TEV cleavage of Fc, SEC; monomer fractions); not shown: Fc (human), C-terminal, cleaved
# T1 sequence (Q15116 24-167 C93S): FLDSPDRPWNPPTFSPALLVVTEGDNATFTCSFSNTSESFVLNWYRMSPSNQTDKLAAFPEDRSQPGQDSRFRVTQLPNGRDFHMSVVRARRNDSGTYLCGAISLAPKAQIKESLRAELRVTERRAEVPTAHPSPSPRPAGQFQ
# Procedure details: SPR; Carterra LSA; Fab from the ammonium sulfate precipitate of the culture supernatant immobilised on a NiHC200M chip; hPD-1 (1-1024 nM) or mPD-1-Fc (4-1024 nM) as analyte, fourfold dilution series, no regeneration; HBS-EP pH 7.4, 25 °C; medians over the spots of a construct, KD = koff/kon
# Condition label: one partner purified
Attribute measured: koff

Worked cases, answers included:
Binder	koff
toripalimab Fab H.K63Y (Fab, V domains shown, heavy chain of Sm3 with this change; numbers count from the chain's first residue; as the light chain of Sm3; source: Brevibacillus, culture supernatant (ammonium sulfate precipitate); not shown: 6xHis, C-terminal, kept; 6xHN, C-terminal, kept) VH: QGQLVQSGAEVKKPGASVKVSCKASGYTFTDYEMHWVRQAPIHGLEWIGVIESETGGTAYNQYFKGRVTITADKSTSTAYMELSSLRSEDTAVYYCAREGITTVATTYYWYFDVWGQGTTVTVSS VL: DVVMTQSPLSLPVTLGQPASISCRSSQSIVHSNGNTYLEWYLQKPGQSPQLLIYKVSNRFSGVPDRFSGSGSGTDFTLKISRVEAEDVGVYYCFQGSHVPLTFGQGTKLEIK	< 1e-05 s⁻¹
toripalimab Fab L.H31Y (Fab, V domains shown, as the heavy chain of Sm3; light chain of Sm3 with this change; numbers count from the chain's first residue; source: Brevibacillus, culture supernatant (ammonium sulfate precipitate); not shown: 6xHis, C-terminal, kept; 6xHN, C-terminal, kept) VH: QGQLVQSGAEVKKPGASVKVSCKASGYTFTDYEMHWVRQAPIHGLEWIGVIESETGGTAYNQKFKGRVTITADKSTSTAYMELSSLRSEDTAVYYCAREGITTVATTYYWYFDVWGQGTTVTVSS VL: DVVMTQSPLSLPVTLGQPASISCRSSQSIVYSNGNTYLEWYLQKPGQSPQLLIYKVSNRFSGVPDRFSGSGSGTDFTLKISRVEAEDVGVYYCFQGSHVPLTFGQGTKLEIK	0.000663 s⁻¹
toripalimab Fab H.K63A (Fab, V domains shown, heavy chain of Sm3 with this change; numbers count from the chain's first residue; as the light chain of Sm3; source: Brevibacillus, culture supernatant (ammonium sulfate precipitate); not shown: 6xHis, C-terminal, kept; 6xHN, C-terminal, kept) VH: QGQLVQSGAEVKKPGASVKVSCKASGYTFTDYEMHWVRQAPIHGLEWIGVIESETGGTAYNQAFKGRVTITADKSTSTAYMELSSLRSEDTAVYYCAREGITTVATTYYWYFDVWGQGTTVTVSS VL: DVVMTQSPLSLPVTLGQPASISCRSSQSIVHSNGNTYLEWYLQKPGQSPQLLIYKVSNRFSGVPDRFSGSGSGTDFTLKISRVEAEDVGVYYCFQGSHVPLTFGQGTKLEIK	< 1e-05 s⁻¹
toripalimab Fab L.R59Y (Fab, V domains shown, as the heavy chain of Sm3; light chain of Sm3 with this change; numbers count from the chain's first residue; source: Brevibacillus, culture supernatant (ammonium sulfate precipitate); not shown: 6xHis, C-terminal, kept; 6xHN, C-terminal, kept) VH: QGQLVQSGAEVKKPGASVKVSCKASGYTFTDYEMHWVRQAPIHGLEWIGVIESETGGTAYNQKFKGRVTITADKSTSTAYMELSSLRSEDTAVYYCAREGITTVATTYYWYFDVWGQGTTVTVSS VL: DVVMTQSPLSLPVTLGQPASISCRSSQSIVHSNGNTYLEWYLQKPGQSPQLLIYKVSNYFSGVPDRFSGSGSGTDFTLKISRVEAEDVGVYYCFQGSHVPLTFGQGTKLEIK	< 1e-05 s⁻¹

Form field: reported koff of toripalimab Fab L.P100N (Fab, V domains shown, as the heavy chain of Sm3; light chain of Sm3 with this change; numbers count from the chain's first residue; source: Brevibacillus, culture supernatant (ammonium sulfate precipitate); not shown: 6xHis, C-terminal, kept; 6xHN, C-terminal, kept) VH: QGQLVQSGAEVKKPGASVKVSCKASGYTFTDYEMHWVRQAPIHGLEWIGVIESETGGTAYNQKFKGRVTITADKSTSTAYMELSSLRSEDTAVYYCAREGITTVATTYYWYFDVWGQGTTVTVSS VL: DVVMTQSPLSLPVTLGQPASISCRSSQSIVHSNGNTYLEWYLQKPGQSPQLLIYKVSNRFSGVPDRFSGSGSGTDFTLKISRVEAEDVGVYYCFQGSHVNLTFGQGTKLEIK
2.33e-05 s⁻¹

These entries and their values trace back to paper PMC10663500.
